# Test system: Escherichia coli TOP10
# Assay Name: shrunken log2 fold change of peptide-encoding DNA abundance (4.5 h post-induction vs induction); higher = less antimicrobial activity (less host growth inhibition)
# Experimental Conditions: time post-induction: 4.5 h; library: site-saturation at positions 5, 18, 19, 20
Everything with shrunken log2 fold change lower than 0.08 is no; everything else, including exactly 0.08, is yes.

# bool: shrunken log2 fold change of `RRIRSRPPRLPRPRPRPEEAPRP` >= 0.08
yes

# bool: shrunken log2 fold change of `RRIRCRPPRLPRPRPRPMALPRP` >= 0.08
no

# bool: shrunken log2 fold change of `RRIRERPPRLPRPRPRPQCCPRP` >= 0.08
no

# bool: shrunken log2 fold change of `RRIRARPPRLPRPRPRPNNNPRP` >= 0.08
no

# bool: shrunken log2 fold change of `RRIRWRPPRLPRPRPRPDAVPRP` >= 0.08
yes

# bool: shrunken log2 fold change of `RRIRTRPPRLPRPRPRPHMPPRP` >= 0.08
no

# bool: shrunken log2 fold change of `RRIRDRPPRLPRPRPRPHTLPRP` >= 0.08
no

# bool: shrunken log2 fold change of `RRIRHRPPRLPRPRPRPAGTPRP` >= 0.08
no

# bool: shrunken log2 fold change of `RRIRKRPPRLPRPRPRPWLKPRP` >= 0.08
no

# bool: shrunken log2 fold change of `RRIRARPPRLPRPRPRPAPNPRP` >= 0.08
yes

# bool: shrunken log2 fold change of `RRIRMRPPRLPRPRPRPVMLPRP` >= 0.08
no

# bool: shrunken log2 fold change of `RRIRMRPPRLPRPRPRPYPHPRP` >= 0.08
no

# bool: shrunken log2 fold change of `RRIRWRPPRLPRPRPRPQSVPRP` >= 0.08
yes

# bool: shrunken log2 fold change of `RRIRWRPPRLPRPRPRPMKCPRP` >= 0.08
no

# bool: shrunken log2 fold change of `RRIRCRPPRLPRPRPRPWRVPRP` >= 0.08
yes

# bool: shrunken log2 fold change of `RRIRSRPPRLPRPRPRPPGLPRP` >= 0.08
yes

# bool: shrunken log2 fold change of `RRIRERPPRLPRPRPRPKFVPRP` >= 0.08
no

# bool: shrunken log2 fold change of `RRIRPRPPRLPRPRPRPGAIPRP` >= 0.08
no

# bool: shrunken log2 fold change of `RRIRYRPPRLPRPRPRPIPRPRP` >= 0.08
no

# bool: shrunken log2 fold change of `RRIRRRPPRLPRPRPRPPVEPRP` >= 0.08
yes

# bool: shrunken log2 fold change of `RRIRCRPPRLPRPRPRPITSPRP` >= 0.08
no

====

# System: Escherichia coli TOP10
# Assay Name: shrunken log2 fold change of peptide-encoding DNA abundance (4.5 h post-induction vs induction); higher = less antimicrobial activity (less host growth inhibition)
# Experimental Conditions: time post-induction: 4.5 h; library: site-saturation at positions 5, 18, 19, 20
Endpoint: shrunken log2 fold change
// print number alone

I am curious: what shrunken log2 fold change value has been reported for `RRIRERPPRLPRPRPRPVVQPRP` ?
-0.104

I am curious: what shrunken log2 fold change value has been reported for `RRIRHRPPRLPRPRPRPWSDPRP` ?
-0.138

I am curious: what shrunken log2 fold change value has been reported for `RRIRWRPPRLPRPRPRPVWSPRP` ?
0.163

I am curious: what shrunken log2 fold change value has been reported for `RRIRHRPPRLPRPRPRPIQPPRP` ?
0.0532

I am curious: what shrunken log2 fold change value has been reported for `RRIRGRPPRLPRPRPRPHAHPRP` ?
0.895

I am curious: what shrunken log2 fold change value has been reported for `RRIRCRPPRLPRPRPRPTYEPRP` ?
-0.717

I am curious: what shrunken log2 fold change value has been reported for `RRIRRRPPRLPRPRPRPDKQPRP` ?
0.0803

I am curious: what shrunken log2 fold change value has been reported for `RRIRLRPPRLPRPRPRPRRAPRP` ?
0.585

I am curious: what shrunken log2 fold change value has been reported for `RRIRFRPPRLPRPRPRPCDVPRP` ?
0.0119

I am curious: what shrunken log2 fold change value has been reported for `RRIRARPPRLPRPRPRPQIDPRP` ?
0.427

I am curious: what shrunken log2 fold change value has been reported for `RRIRFRPPRLPRPRPRPHHGPRP` ?
0.000407

I am curious: what shrunken log2 fold change value has been reported for `RRIRFRPPRLPRPRPRPTFSPRP` ?
-0.0425

I am curious: what shrunken log2 fold change value has been reported for `RRIRHRPPRLPRPRPRPVICPRP` ?
-0.0717

I am curious: what shrunken log2 fold change value has been reported for `RRIRCRPPRLPRPRPRPFQVPRP` ?
-0.335

I am curious: what shrunken log2 fold change value has been reported for `RRIRFRPPRLPRPRPRPVWVPRP` ?
0.0313

I am curious: what shrunken log2 fold change value has been reported for `RRIRNRPPRLPRPRPRPQVIPRP` ?
-0.000921

I am curious: what shrunken log2 fold change value has been reported for `RRIRERPPRLPRPRPRPSNHPRP` ?
-0.91

I am curious: what shrunken log2 fold change value has been reported for `RRIRGRPPRLPRPRPRPVPLPRP` ?
0.13

I am curious: what shrunken log2 fold change value has been reported for `RRIRIRPPRLPRPRPRPDRQPRP` ?
0.0357

I am curious: what shrunken log2 fold change value has been reported for `RRIRHRPPRLPRPRPRPVSMPRP` ?
-0.0784

I am curious: what shrunken log2 fold change value has been reported for `RRIRARPPRLPRPRPRPGDSPRP` ?
0.339

I am curious: what shrunken log2 fold change value has been reported for `RRIRNRPPRLPRPRPRPKFKPRP` ?
-0.508

I am curious: what shrunken log2 fold change value has been reported for `RRIRRRPPRLPRPRPRPNHRPRP` ?
-0.0368

====

# Test system: Escherichia coli TOP10;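 further: peptides expressed intracellularly from a pBAD plasmid library in pooled LB shake-flask culture, induced with 0.3% L-arabinose, DNA abundance read by NGS, three biological replicates, DESeq2 with apeglm shrinkage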
# Assay Name: shrunken log2 fold change of peptide-encoding DNA abundance (4.5 h post-induction vs induction); higher = less antimicrobial activity (less host growth inhibition)
# Experimental Conditions: time post-induction: 4.5 h; library: site-saturation at positions 5, 18, 19, 20
Endpoint: shrunken log2 fold change
// print number alone

I am curious: what shrunken log2 fold change value has been reported for `RRIRMRPPRLPRPRPRPPAIPRP` ?
0.911

I am curious: what shrunken log2 fold change value has been reported for `RRIRMRPPRLPRPRPRPTQKPRP` ?
0.168

I am curious: what shrunken log2 fold change value has been reported for `RRIRHRPPRLPRPRPRPWWMPRP` ?
0.0619

I am curious: what shrunken log2 fold change value has been reported for `RRIRDRPPRLPRPRPRPNITPRP` ?
-0.289

I am curious: what shrunken log2 fold change value has been reported for `RRIRFRPPRLPRPRPRPDWKPRP` ?
0.0379

I am curious: what shrunken log2 fold change value has been reported for `RRIRMRPPRLPRPRPRPHIMPRP` ?
-0.422

I am curious: what shrunken log2 fold change value has been reported for `RRIRERPPRLPRPRPRPYKKPRP` ?
0.0359

I am curious: what shrunken log2 fold change value has been reported for `RRIRYRPPRLPRPRPRPSYHPRP` ?
-1.21

I am curious: what shrunken log2 fold change value has been reported for `RRIRVRPPRLPRPRPRPLPVPRP` ?
0.0196

I am curious: what shrunken log2 fold change value has been reported for `RRIRYRPPRLPRPRPRPCSKPRP` ?
-0.012

I am curious: what shrunken log2 fold change value has been reported for `RRIRSRPPRLPRPRPRPYYWPRP` ?
-0.00332

I am curious: what shrunken log2 fold change value has been reported for `RRIRHRPPRLPRPRPRPYKTPRP` ?
-0.00968

I am curious: what shrunken log2 fold change value has been reported for `RRIRKRPPRLPRPRPRPLAKPRP` ?
0.614

I am curious: what shrunken log2 fold change value has been reported for `RRIRSRPPRLPRPRPRPRFTPRP` ?
-0.115

I am curious: what shrunken log2 fold change value has been reported for `RRIRSRPPRLPRPRPRPVPGPRP` ?
0.137

I am curious: what shrunken log2 fold change value has been reported for `RRIRTRPPRLPRPRPRPGVDPRP` ?
0.0151

I am curious: what shrunken log2 fold change value has been reported for `RRIRGRPPRLPRPRPRPAQQPRP` ?
0.57

I am curious: what shrunken log2 fold change value has been reported for `RRIRGRPPRLPRPRPRPPECPRP` ?
0.483

I am curious: what shrunken log2 fold change value has been reported for `RRIRGRPPRLPRPRPRPINWPRP` ?
0.193

I am curious: what shrunken log2 fold change value has been reported for `RRIRWRPPRLPRPRPRPDTGPRP` ?
-0.373

I am curious: what shrunken log2 fold change value has been reported for `RRIRSRPPRLPRPRPRPEPQPRP` ?
0.397

I am curious: what shrunken log2 fold change value has been reported for `RRIRLRPPRLPRPRPRPFKAPRP` ?
0.181

I am curious: what shrunken log2 fold change value has been reported for `RRIRTRPPRLPRPRPRPRYKPRP` ?
-0.909

I am curious: what shrunken log2 fold change value has been reported for `RRIRTRPPRLPRPRPRPMLFPRP` ?
0.177

I am curious: what shrunken log2 fold change value has been reported for `RRIRRRPPRLPRPRPRPVSDPRP` ?
0.444

I am curious: what shrunken log2 fold change value has been reported for `RRIRARPPRLPRPRPRPYHKPRP` ?
-0.193

I am curious: what shrunken log2 fold change value has been reported for `RRIRFRPPRLPRPRPRPMNAPRP` ?
-0.054

I am curious: what shrunken log2 fold change value has been reported for `RRIRIRPPRLPRPRPRPQAPPRP` ?
-0.331

I am curious: what shrunken log2 fold change value has been reported for `RRIRIRPPRLPRPRPRPQHSPRP` ?
-0.463

I am curious: what shrunken log2 fold change value has been reported for `RRIRERPPRLPRPRPRPSLSPRP` ?
-0.573

I am curious: what shrunken log2 fold change value has been reported for `RRIRTRPPRLPRPRPRPLKLPRP` ?
-0.251

I am curious: what shrunken log2 fold change value has been reported for `RRIRPRPPRLPRPRPRPDQFPRP` ?
-0.0233

I am curious: what shrunken log2 fold change value has been reported for `RRIRNRPPRLPRPRPRPQFKPRP` ?
-0.3

I am curious: what shrunken log2 fold change value has been reported for `RRIRQRPPRLPRPRPRPHDAPRP` ?
-0.0149

I am curious: what shrunken log2 fold change value has been reported for `RRIRGRPPRLPRPRPRPPLSPRP` ?
0.897

I am curious: what shrunken log2 fold change value has been reported for `RRIRCRPPRLPRPRPRPISTPRP` ?
-0.245

I am curious: what shrunken log2 fold change value has been reported for `RRIRRRPPRLPRPRPRPFSCPRP` ?
0.082

I am curious: what shrunken log2 fold change value has been reported for `RRIRGRPPRLPRPRPRPRRGPRP` ?
0.813

I am curious: what shrunken log2 fold change value has been reported for `RRIRPRPPRLPRPRPRPDAMPRP` ?
0.319

I am curious: what shrunken log2 fold change value has been reported for `RRIRVRPPRLPRPRPRPRELPRP` ?
-0.0137

I am curious: what shrunken log2 fold change value has been reported for `RRIRTRPPRLPRPRPRPECVPRP` ?
0.148

I am curious: what shrunken log2 fold change value has been reported for `RRIRPRPPRLPRPRPRPMGDPRP` ?
0.234

I am curious: what shrunken log2 fold change value has been reported for `RRIRIRPPRLPRPRPRPNFHPRP` ?
-0.52

I am curious: what shrunken log2 fold change value has been reported for `RRIRCRPPRLPRPRPRPMQNPRP` ?
0.311

I am curious: what shrunken log2 fold change value has been reported for `RRIRGRPPRLPRPRPRPMKQPRP` ?
0.316

I am curious: what shrunken log2 fold change value has been reported for `RRIRVRPPRLPRPRPRPFFQPRP` ?
-0.0276

I am curious: what shrunken log2 fold change value has been reported for `RRIRFRPPRLPRPRPRPIAGPRP` ?
0.0541

I am curious: what shrunken log2 fold change value has been reported for `RRIRVRPPRLPRPRPRPPTMPRP` ?
0.0704

I am curious: what shrunken log2 fold change value has been reported for `RRIRTRPPRLPRPRPRPWVEPRP` ?
-0.297

I am curious: what shrunken log2 fold change value has been reported for `RRIRWRPPRLPRPRPRPENPPRP` ?
-0.0117

I am curious: what shrunken log2 fold change value has been reported for `RRIRYRPPRLPRPRPRPPQVPRP` ?
-0.0496

I am curious: what shrunken log2 fold change value has been reported for `RRIRVRPPRLPRPRPRPCTGPRP` ?
-1.78

I am curious: what shrunken log2 fold change value has been reported for `RRIRQRPPRLPRPRPRPEDWPRP` ?
-0.106

I am curious: what shrunken log2 fold change value has been reported for `RRIRHRPPRLPRPRPRPDEVPRP` ?
-0.00134

I am curious: what shrunken log2 fold change value has been reported for `RRIRARPPRLPRPRPRPNGYPRP` ?
0.122

I am curious: what shrunken log2 fold change value has been reported for `RRIRMRPPRLPRPRPRPKVDPRP` ?
-0.0311

meta.source: the supplement of paper PMC9112550
